molecular target: BDNF/NT-3 growth factors receptor (Homo sapiens) (UniProt Q16620); settings: at 1 µM
Sequence (Q16620 32-822 limits assumed): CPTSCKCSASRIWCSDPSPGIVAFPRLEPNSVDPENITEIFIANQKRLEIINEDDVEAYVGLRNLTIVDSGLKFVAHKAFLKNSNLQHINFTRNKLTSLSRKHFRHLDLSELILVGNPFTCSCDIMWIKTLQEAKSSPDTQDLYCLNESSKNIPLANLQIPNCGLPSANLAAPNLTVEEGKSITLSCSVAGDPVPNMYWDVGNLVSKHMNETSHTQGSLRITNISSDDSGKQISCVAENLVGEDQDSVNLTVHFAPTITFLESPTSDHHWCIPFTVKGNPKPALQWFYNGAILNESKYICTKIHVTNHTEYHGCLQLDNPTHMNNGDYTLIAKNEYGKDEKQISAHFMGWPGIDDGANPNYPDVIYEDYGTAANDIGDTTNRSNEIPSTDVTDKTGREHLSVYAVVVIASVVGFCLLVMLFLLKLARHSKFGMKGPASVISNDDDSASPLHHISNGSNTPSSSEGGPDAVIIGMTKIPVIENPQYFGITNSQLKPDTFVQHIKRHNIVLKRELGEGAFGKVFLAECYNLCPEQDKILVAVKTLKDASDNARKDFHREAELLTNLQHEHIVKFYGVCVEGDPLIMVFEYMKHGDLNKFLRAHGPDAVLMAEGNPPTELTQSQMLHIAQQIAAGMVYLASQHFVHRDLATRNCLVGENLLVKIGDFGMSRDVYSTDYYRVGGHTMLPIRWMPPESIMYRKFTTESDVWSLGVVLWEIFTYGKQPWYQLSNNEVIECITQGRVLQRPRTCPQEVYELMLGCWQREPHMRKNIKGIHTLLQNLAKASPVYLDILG
residual activity strictly under 70% means 1 (yes); at 70% or over means 0 (no).

- sample_smiles: "COc1ccc(-c2cnc3c(-c4ccsc4)cnn3c2)cc1"
  class_name: "1 (yes)"
- sample_smiles: "Nc1ncnc2[nH]nc(Nc3ccc(F)cc3)c12"
  class_name: "0 (no)"
- sample_smiles: "CCOC(=O)c1c(C)[nH]c(/C=C2\\C(=O)Nc3ccccc32)c1C"
  class_name: "0 (no)"
- sample_smiles: "Cn1c2ccccc2c2c3c(c4c5ccccc5n(CCC#N)c4c21)CNC3=O"
  class_name: "1 (yes)"
- sample_smiles: "Nc1nccc(-c2c(-c3ccc(F)cc3)ncn2C2CCNCC2)n1"
  class_name: "0 (no)"
- sample_smiles: "COc1cc2ncnc(Nc3cccc(Cl)c3)c2cc1OC"
  class_name: "1 (yes)"

Data provenance: ChEMBL document CHEMBL2218924
